Cited source: PubChem BioAssay (EPA / NIEHS)

Read-out: Interleukin-1 alpha (IL1a), IL1A (gene 3552)
Experiment: BSK_BE3C_IL1a: BioMAP Diversity Plus: BE3C Assay for Interleukin-1 alpha (IL1a) Biomarker Activity (AID 2283016)
Conditions: primary human bronchial epithelial cells; actives raise or lower the signal
Active and inactive are the calls of the source. How the source made its calls: active means hit-call score of the fitted dose curve at least 0.9, where 1 is the maximum; inactive means score below 0.9.
Outcomes: TRUE for active, FALSE for inactive

>  <molecule>
CC(=O)c1ccccc1

>  <class.label>
FALSE

$$$$
>  <molecule>
O=C(O)c1cccc(C[C@@H]2COc3ccc(OCc4nc5cc(F)ccc5s4)cc3[C@@H]2O)c1

>  <class.label>
FALSE

$$$$
>  <molecule>
CNC(C)=O

>  <class.label>
FALSE

$$$$
>  <molecule>
Cc1ncc([C@@H](CCCCCCc2ccc3c(n2)NCCC3)CC(=O)O)cn1

>  <class.label>
FALSE

$$$$
>  <molecule>
O=c1[nH]cnc2c1ncn2[C@H]1CC[C@@H](CO)O1

>  <class.label>
FALSE

$$$$
>  <molecule>
Cn1cc[nH]c1=S

>  <class.label>
FALSE

$$$$
>  <molecule>
c1ccc2ncccc2c1

>  <class.label>
FALSE

$$$$
>  <molecule>
FC(F)(F)C(F)(F)C(F)(F)C(F)(F)C(F)(F)C(F)(F)I

>  <class.label>
FALSE

$$$$
>  <molecule>
CCCCN1C(=O)[C@@H]([C@H](O)C2CCCCC2)NC(=O)C12CCN(Cc1ccc(Oc3ccc(C(=O)O)cc3)cc1)CC2

>  <class.label>
FALSE

$$$$
>  <molecule>
O=S(=O)(O)CCC(F)(F)C(F)(F)C(F)(F)C(F)(F)C(F)(F)C(F)(F)F

>  <class.label>
FALSE

$$$$
>  <molecule>
CC(C)CCCCCCOC(=O)C1CCCCC1C(=O)OCCCCCCC(C)C (stereo not given)

>  <class.label>
FALSE

$$$$
>  <molecule>
NC(=O)N1c2ccccc2C=Cc2ccccc21

>  <class.label>
FALSE

$$$$
>  <molecule>
O=C(Cl)C(F)(F)C(F)(F)C(F)(F)C(=O)Cl

>  <class.label>
FALSE

$$$$
>  <molecule>
CC(C)c1nnc2ccc(-c3ocnc3-c3cc(F)ccc3F)cn12

>  <class.label>
FALSE

$$$$
>  <molecule>
OCc1c[nH]c2ccccc12

>  <class.label>
FALSE

$$$$
>  <molecule>
CCCCCCCC1CCC(=O)O1 (stereo not given)

>  <class.label>
FALSE

$$$$
>  <molecule>
COc1cc(C(C)C)c2c(c1)S(=O)(=O)N(COc1cc(=O)n3cccc(OCCN4CCCCC4)c3n1)C2=O

>  <class.label>
TRUE

$$$$
>  <molecule>
COc1cc2c(c(OC)c1OC)-c1ccc(OC)c(=O)cc1[C@@H](NC(C)=O)CC2

>  <class.label>
FALSE

$$$$
>  <molecule>
O=C(O)c1ccc2c(c1)nc(C(=O)NC1CCN(C3CC3)CC1)n2Cc1cc(-c2ccc(Cl)s2)on1

>  <class.label>
FALSE

$$$$
>  <molecule>
CCCCC(CC)C(=O)OCCOCCOCCOC(=O)C(CC)CCCC (stereo not given)

>  <class.label>
FALSE

$$$$

====

Experiment: APR_HepG2_P-H2AX_72hr: Apredica 72-hour HepG2 Assay for H2AX Phosphorylation (AID 2282916);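 further: phospho-histone H2A.x immunostain intensity per cell marking DNA damage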
Details: imaging, actives raise or lower the signal
The source made the active and inactive calls. Rule for the calls: active = hit-call score of the fitted dose curve at least 0.9, where 1 is the maximum; inactive = score below 0.9.
Outcomes: Y (active), N (inactive)

>  <compound>
OCc1ccccc1

>  <class.label>
N

$$$$
>  <compound>
CCCCOC(=O)c1ccccc1

>  <class.label>
N

$$$$
>  <compound>
CCCCCCCCCC

>  <class.label>
N

$$$$
>  <compound>
OC(CCl)CCl

>  <class.label>
N

$$$$
>  <compound>
O=C1CN(N=Cc2ccc([N+](=O)[O-])o2)C(=O)N1

>  <class.label>
Y

$$$$
>  <compound>
Cc1nc(-c2ccccn2)ncc1C(=O)Nn1cc(C)c2cc(F)ccc21

>  <class.label>
N

$$$$
>  <compound>
CCCCN1C(=O)[C@@H]([C@H](O)C2CCCCC2)NC(=O)C12CCN(Cc1ccc(Oc3ccc(C(=O)O)cc3)cc1)CC2

>  <class.label>
Y

$$$$
>  <compound>
CC1(C)C(=O)N(Cl)C(=O)N1Cl

>  <class.label>
N

$$$$
>  <compound>
O=c1[nH]cnc2c1ncn2[C@H]1CC[C@@H](CO)O1

>  <class.label>
N

$$$$
>  <compound>
CCCCC(CC)C(=O)OCCOCCOCCOC(=O)C(CC)CCCC (stereo not drawn)

>  <class.label>
N

$$$$
>  <compound>
NC(N)=O

>  <class.label>
N

$$$$
>  <compound>
CC(C)c1nnc2ccc(-c3ocnc3-c3cc(F)ccc3F)cn12

>  <class.label>
N

$$$$
>  <compound>
OC(Cn1cncn1)(Cn1cncn1)c1ccc(F)cc1F

>  <class.label>
N

$$$$
